Taken from patent US6482949B1.

- ASSAY_PROTOCOL: Anion binding constants (Ka) by fluorescence quenching / UV-vis absorbance titration, chloride
- PROTOCOL_CONDITIONS: dichloromethane; 1 by fluorescence quenching, 10 by UV-vis absorbance titration at 341 nm; errors ± 10%, average of 2-4 trials
Listing of entries alongside the reported Anion binding constant (Ka), Cl^−.

[
  {
    "STRUCTURE_SMILES_STRING": "C[Si](C)(C)CCOCn1cccc1-c1nc2ccccc2nc1-c1ccc[nH]1",
    "Anion binding constant (Ka), Cl^−": "<50 M⁻¹"
  },
  {
    "STRUCTURE_SMILES_STRING": "COc1cc2nc(-c3ccc[nH]3)c(-c3ccc[nH]3)nc2cc1OC",
    "Anion binding constant (Ka), Cl^−": "<50 M⁻¹"
  },
  {
    "STRUCTURE_SMILES_STRING": "O=[N+]([O-])c1cc2nc(-c3ccc[nH]3)c(-c3ccc[nH]3)nc2cc1[N+](=O)[O-]",
    "Anion binding constant (Ka), Cl^−": "45 M⁻¹"
  },
  {
    "STRUCTURE_SMILES_STRING": "O=[N+]([O-])c1ccc2nc(-c3ccc[nH]3)c(-c3ccc[nH]3)nc2c1",
    "Anion binding constant (Ka), Cl^−": "45 M⁻¹"
  },
  {
    "STRUCTURE_SMILES_STRING": "c1c[nH]c(-c2nc3ccccc3nc2-c2ccc[nH]2)c1",
    "Anion binding constant (Ka), Cl^−": "50 M⁻¹"
  }
]

* * *

- ASSAY_PROTOCOL: Anion binding constants (Ka) by fluorescence quenching / UV-vis absorbance titration, fluoride
- PROTOCOL_CONDITIONS: dichloromethane; 1 by fluorescence quenching (λex 412 nm), 10 by UV-vis absorbance titration at 341 nm; errors ± 10%, average of 2-4 trials

[
  {
    "COMPOUND": "O=[N+]([O-])c1ccc2nc(-c3ccc[nH]3)c(-c3ccc[nH]3)nc2c1 [compound 7, 6-nitro-2,3-dipyrrylquinoxaline]",
    "Anion binding constant (Ka), F^−": "118,000 M^−1"
  },
  {
    "COMPOUND": "O=[N+]([O-])c1cc2nc(-c3ccc[nH]3)c(-c3ccc[nH]3)nc2cc1[N+](=O)[O-] [compound 3]",
    "Anion binding constant (Ka), F^−": "117,000 M^−1"
  },
  {
    "COMPOUND": "C[Si](C)(C)CCOCn1cccc1-c1nc2ccccc2nc1-c1ccc[nH]1 [compound 12]",
    "Anion binding constant (Ka), F^−": "2,300 M^−1"
  },
  {
    "COMPOUND": "c1c[nH]c(-c2nc3ccccc3nc2-c2ccc[nH]2)c1 [compound 1, 2,3-dipyrrylquinoxaline]",
    "Anion binding constant (Ka), F^−": "18,200 M^−1"
  },
  {
    "COMPOUND": "COc1cc2nc(-c3ccc[nH]3)c(-c3ccc[nH]3)nc2cc1OC [compound 2]",
    "Anion binding constant (Ka), F^−": "2,300 M^−1"
  }
]

* * *

- ASSAY_PROTOCOL: Anion binding constants (Ka) by fluorescence quenching / UV-vis absorbance titration, fluoride
- PROTOCOL_CONDITIONS: in dichloromethane
ASSAY_READOUT: affinity constant (Ka) for F^− binding, rounded

[
  {
    "STRUCTURE_SMILES_STRING": "O=[N+]([O-])c1ccc2nc(-c3ccc[nH]3)c(-c3ccc[nH]3)nc2c1",
    "OBS_VALUE": "~10^5 M^−1"
  },
  {
    "STRUCTURE_SMILES_STRING": "COc1cc2nc(-c3ccc[nH]3)c(-c3ccc[nH]3)nc2cc1OC",
    "OBS_VALUE": "2000 M⁻¹"
  },
  {
    "STRUCTURE_SMILES_STRING": "c1c[nH]c(-c2nc3ccccc3nc2-c2ccc[nH]2)c1",
    "OBS_VALUE": "20000 M⁻¹"
  },
  {
    "STRUCTURE_SMILES_STRING": "O=[N+]([O-])c1cc2nc(-c3ccc[nH]3)c(-c3ccc[nH]3)nc2cc1[N+](=O)[O-]",
    "OBS_VALUE": "~10^5 M^−1"
  }
]
